# test-system: UniProt P23743
# Sequence (P23743 whole entry): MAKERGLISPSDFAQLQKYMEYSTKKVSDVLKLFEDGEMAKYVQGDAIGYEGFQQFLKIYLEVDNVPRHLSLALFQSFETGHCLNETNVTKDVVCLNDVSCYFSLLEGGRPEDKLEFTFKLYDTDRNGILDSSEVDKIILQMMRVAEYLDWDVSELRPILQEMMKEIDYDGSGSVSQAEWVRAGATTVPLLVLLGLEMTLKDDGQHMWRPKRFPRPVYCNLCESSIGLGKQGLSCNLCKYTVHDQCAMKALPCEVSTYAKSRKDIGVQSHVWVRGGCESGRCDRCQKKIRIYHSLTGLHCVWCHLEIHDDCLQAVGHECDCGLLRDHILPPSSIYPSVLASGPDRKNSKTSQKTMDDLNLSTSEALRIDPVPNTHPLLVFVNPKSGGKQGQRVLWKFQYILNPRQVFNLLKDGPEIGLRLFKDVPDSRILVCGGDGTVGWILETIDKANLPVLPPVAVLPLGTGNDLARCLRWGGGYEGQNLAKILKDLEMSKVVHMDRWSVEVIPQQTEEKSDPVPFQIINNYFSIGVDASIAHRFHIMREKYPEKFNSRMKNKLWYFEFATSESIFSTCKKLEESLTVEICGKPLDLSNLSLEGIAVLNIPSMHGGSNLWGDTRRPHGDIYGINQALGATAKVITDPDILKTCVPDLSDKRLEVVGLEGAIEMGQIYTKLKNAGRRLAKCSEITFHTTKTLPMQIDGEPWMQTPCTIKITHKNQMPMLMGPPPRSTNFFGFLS
pIC50: −log10 of the molar value.
Assign True whenever pIC50 does not fall below 6; assign False whenever it does.

- molecule: "CC#CCn1cc2c(n1)c(N1C[C@@H](CC)N(C(C)c3ccc4cccnc4c3)C[C@@H]1C)cc(=O)n2C (stereo partly drawn)"
  label: "True"
- molecule: "CC[C@H]1CN(C(C)c2ccc3cc(C)ncc3c2)[C@H](CC)CN1c1cc(=O)n(C)c2cn(CC#N)nc12 (stereo partly drawn)"
  label: "True"
- molecule: "CC[C@@H]1CN(c2cc(=O)n(C)c3cn(CC(F)F)nc23)[C@@H](C)CN1C(C)c1ccc2nccnc2c1 (single isomer, unassigned) [Compound A222b]"
  label: "False"
- molecule: "CC[C@H]1CN(C(C)c2ccc(C(F)(F)F)c(OC)c2)[C@H](CC)CN1c1cc(=O)n(C)c2cn(CC#N)nc12 (stereo partly drawn)"
  label: "False"
- molecule: "CC[C@H]1CN(C(C)c2cccn(C)c2=O)[C@H](CC)CN1c1cc(=O)n(C)c2cn(CC#N)nc12 (stereo partly drawn)"
  label: "False"
- molecule: "CC[C@H]1CN(C(C)c2ccc(C)nc2)[C@H](CC)CN1c1cc(=O)n(C)c2cn(CC#N)nc12 (single isomer, unassigned) [Compound A349a]"
  label: "True"
